target: recombinant human fibroblast activation protein (FAP) (Homo sapiens (Human)); assay: In vitro assay fibroblast activation protein IC50 (Example 21); assay type: biochemical; conditions: Z-Gly-Pro-AMC; 1.2 nM enzyme
pIC50: −log10 of the molar value. Square brackets hold non-standard residues; d marks the D form. Peptide text beside a SMILES is read from it. * marks the point of attachment. DOTA = O=C(O)CN1CCN(CC(=O)O)CCN(CC(=O)*)CCN(CC(=O)O)CC1; X6 = CN1CC(=O)C2(C1)OC([C@@H]1CCCN1*)OC2=O
Measurement type: pIC50

A selection of reference data follows.
| Compound | pIC50 |
| --- | --- |
| C[C@@H](NC(=O)CN1CCN(CC(=O)O)CCN(CC(=O)O)CCN(CC(=O)O)CC1)C(=O)N1CCC[C@H]1B(O)O | 6.54 |
| CC(C)[C@H](NC(=O)CNC(=O)CCC(C(=O)O)N1CCN(CC(=O)O)CCN(CC(=O)O)CCN(CC(=O)O)CC1)C(=O)N[C@H](C)C(=O)N1CCC[C@H]1B(O)O (some centres unmarked) | 8.05 |
| CC(C)[C@H](NC(=O)CCCCNC(=O)CN1CCN2CCN3CCN(CC1)CC(=O)[O][Lu]([O]C(=O)C2)[O]C(=O)C3)C(=O)N[C@H](C)C(=O)N1CCC[C@H]1B(O)O [6940LU, DOTA(Lu)-PEN-Val-Dala-boroPro] | 7.63 |

a. C[C@@H](NC(=O)[C@H]1CC[C@H](CNC(=O)CN2CCN(CC(=O)O)CCN(CC(=O)O)CCN(CC(=O)O)CC2)CC1)C(=O)N1CCC[C@H]1B(O)O
b. CC(C)[C@H](NC(=O)CNC(=O)CNC(=O)CN1CCN(CC(=O)O)CCN(CC(=O)O)CCN(CC(=O)O)CC1)C(=O)N[C@H](C)C(=O)N1CCC[C@H]1C1OC(=O)C2(CN(C)CC2=O)O1 (some centres unmarked) [6522M] ({DOTA}-GGV[dA]-X6)
// which entry reports the smaller pIC50, a or b ? Answer format: the label of the selected item.
b

* * *

target: recombinant human prolyl oligopeptidase (PREP) (Homo sapiens (Human)); test: In vitro assay prolyl oligopeptidase IC50 (Example 21); format: biochemical
Sequence (P48147 whole entry): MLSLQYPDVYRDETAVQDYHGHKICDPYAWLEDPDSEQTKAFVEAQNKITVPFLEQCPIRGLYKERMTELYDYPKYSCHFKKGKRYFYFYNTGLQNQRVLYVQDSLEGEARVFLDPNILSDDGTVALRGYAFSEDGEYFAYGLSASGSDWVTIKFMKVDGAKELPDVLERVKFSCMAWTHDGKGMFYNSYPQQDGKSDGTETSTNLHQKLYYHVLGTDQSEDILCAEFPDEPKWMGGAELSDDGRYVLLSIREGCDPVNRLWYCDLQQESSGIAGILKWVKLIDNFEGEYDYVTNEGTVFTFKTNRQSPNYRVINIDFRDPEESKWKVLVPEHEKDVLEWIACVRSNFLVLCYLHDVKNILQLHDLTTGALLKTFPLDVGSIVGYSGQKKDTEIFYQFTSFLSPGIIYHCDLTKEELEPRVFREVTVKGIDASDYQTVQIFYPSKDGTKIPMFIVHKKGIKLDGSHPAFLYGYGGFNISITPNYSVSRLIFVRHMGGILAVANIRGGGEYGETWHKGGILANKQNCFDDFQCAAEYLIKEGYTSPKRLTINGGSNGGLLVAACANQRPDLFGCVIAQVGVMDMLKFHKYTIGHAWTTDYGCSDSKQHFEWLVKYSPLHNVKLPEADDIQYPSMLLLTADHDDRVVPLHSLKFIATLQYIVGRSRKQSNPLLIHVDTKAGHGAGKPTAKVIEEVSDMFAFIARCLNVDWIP
Measurement type: IC50 (nM)

| Molecule | Assayed system | IC50 (nM) |
| --- | --- | --- |
| C[C@@H](NC(=O)c1ccc(CNC(=O)CN2CCN3CCN4CCN(CC2)CC(=O)[O][Ga]([O]C(=O)C3)[O]C(=O)C4)nc1)C(=O)N1CCC[C@H]1B(O)O [6556GA] | recombinant human prolyl oligopeptidase (PREP) (Homo sapiens (Human)) | 248 |
| C[C@@H](NC(=O)c1ccc(NC(=O)CN2CCN3CCN4CCN(CC2)CC(=O)[O][Lu]([O]C(=O)C3)[O]C(=O)C4)cc1)C(=O)N1CCC[C@H]1B(O)O [6572LU] | recombinant human prolyl oligopeptidase (PREP) (Homo sapiens (Human)) | 891 |

a. C[C@@H](NC(=O)c1ccc(CNC(=O)CN2CCN(CC(=O)O)CCN(CC(=O)O)CCN(CC(=O)O)CC2)cc1)C(=O)N1CCC[C@H]1B(O)O
b. C[C@@H](NC(=O)c1ccc(NC(=O)CCCCNC(=O)CN2CCN(CC(=O)O)CCN(CC(=O)O)CCN(CC(=O)O)CC2)cc1)C(=O)N1CCC[C@H]1B(O)O
c. C[C@@H](NC(=O)c1ccc(NN)nc1)C(=O)N1CCC[C@H]1B(O)O
Order the records, beginning with the lowest IC50 and ending with the highest. Use the labels to give the requested order.
b, a, c

* * *

target: recombinant human fibroblast activation protein (FAP) (Homo sapiens (Human), UniProt Q12884); experiment: In vitro assay fibroblast activation protein IC50 (Example 21); format: biochemical; details: Z-Gly-Pro-AMC; 1.2 nM enzyme
Sequence (Q12884 whole entry): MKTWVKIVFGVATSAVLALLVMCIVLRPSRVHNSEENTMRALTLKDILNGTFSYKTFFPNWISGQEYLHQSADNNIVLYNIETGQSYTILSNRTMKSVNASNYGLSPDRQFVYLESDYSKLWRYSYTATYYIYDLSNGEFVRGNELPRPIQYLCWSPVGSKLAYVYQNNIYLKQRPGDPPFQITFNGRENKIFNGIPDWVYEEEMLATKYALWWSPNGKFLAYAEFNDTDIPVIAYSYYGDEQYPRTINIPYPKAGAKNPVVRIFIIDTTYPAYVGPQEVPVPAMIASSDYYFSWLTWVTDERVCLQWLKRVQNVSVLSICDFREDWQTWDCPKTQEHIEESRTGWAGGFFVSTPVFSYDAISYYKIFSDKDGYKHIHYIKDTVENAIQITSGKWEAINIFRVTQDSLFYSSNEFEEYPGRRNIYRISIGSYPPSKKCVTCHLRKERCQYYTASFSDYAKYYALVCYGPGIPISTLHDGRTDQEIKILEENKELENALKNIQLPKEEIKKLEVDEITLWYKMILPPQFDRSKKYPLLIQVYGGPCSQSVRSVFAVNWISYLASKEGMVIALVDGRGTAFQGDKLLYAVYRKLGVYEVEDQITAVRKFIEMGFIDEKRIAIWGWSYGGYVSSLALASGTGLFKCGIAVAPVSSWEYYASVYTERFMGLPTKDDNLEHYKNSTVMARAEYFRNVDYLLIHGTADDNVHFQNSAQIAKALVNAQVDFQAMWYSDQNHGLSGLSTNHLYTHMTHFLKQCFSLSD
Square brackets hold non-standard residues; d marks the D form. Peptide text beside a SMILES is read from it. * marks the point of attachment. DOTA(Ga) = O=C1CN2CCN3CCN(CC(=O)*)CCN(CC2)CC(=O)[O][Ga]([O]1)[O]C(=O)C3; DOTAGA = O=C(O)CN1CCN(CC(=O)O)CCN(C(CCC(=O)*)C(=O)O)CCN(CC(=O)O)CC1; boroPro = OB(O)[C@@H]1CCCN1*
Measurement type: IC50 (nM)

A selection of reference data follows.
| Molecule | Value reported |
| --- | --- |
| CC(C)[C@H](NC(=O)CNC(=O)CNC(=O)CNC(=O)CNC(=O)CN1CCN2CCN3CCN(CC1)CC(=O)[O][Ga]([O]C(=O)C2)[O]C(=O)C3)C(=O)N[C@H](C)C(=O)N1CCC[C@H]1B(O)O [6839GA] ({DOTA(Ga)}-GGGGV[dA]-boroPro) | 258 |
| CC(C)[C@H](NC(=O)CCCCCCCNC(=O)CN1CCN2CCN3CCN(CC1)CC(=O)[O][Ga]([O]C(=O)C2)[O]C(=O)C3)C(=O)N[C@H](C)C(=O)N1CCC[C@H]1B(O)O [6947GA, DOTA(Ga)-OCT-Val-Dala-boroPro] | 219 |
| CC(C)[C@H](NC(=O)CNC(=O)CNC(=O)CNC(=O)CNC(=O)CCC(C(=O)O)N1CCN(CC(=O)O)CCN(CC(=O)O)CCN(CC(=O)O)CC1)C(=O)N[C@H](C)C(=O)N1CCC[C@H]1B(O)O (stereo partly drawn) [compound 6868] ({DOTAGA}-GGGGV[dA]-boroPro) | 21 |

A. CC(C)[C@H](NC(=O)CNC(=O)CNC(=O)CCC(C(=O)O)N1CCN(CC(=O)O)CCN(CC(=O)O)CCN(CC(=O)O)CC1)C(=O)N[C@H](C)C(=O)N1CCC[C@H]1B(O)O (stereo partly drawn) [compound 6794] ({DOTAGA}-GGV[dA]-boroPro)
B. CC(C)[C@H](NC(=O)CNC(=O)CC[C@H](C(=O)O)N1CCN(CC(=O)O)CCN(CC(=O)O)CCN(CC(=O)O)CC1)C(=O)N[C@H](C)C(=O)N1CCC[C@H]1B(O)O [6795D]
Which of the two gives a bigger number for IC50: A or B ? Answer format: the label of the selected item.
A
(A: 33 nM, B: 17 nM)
